target: Nuclear receptor subfamily 1 group I member 2 (Homo sapiens) (UniProt O75469); experiment: Human pregnane X receptor (PXR) activation by small molecules, qHTS assay (AID 1346985); settings: DPX-2 HepG2 CYP3A4-luciferase, 24 h; series mostly up to 38.3 µM; further: nearly all actives have a fitted effect of over 40% in size
Inconclusive results are not listed. Calls of active or inactive are those of the source. The call rests on the fitted dose curve; in most records, active means well fitted activation curve with a large enough effect in the repeat runs; inconclusive means weak or mixed curves; inactive means flat fitted curve, though single readings scatter.
Assign a class; possible classes are active, inactive

Take a look at these entries with their results.
# MOLECULE, LABEL
data = [
    ("C[C@H]1CC[C@@H]2[C@@H](C)[C@H]3[C@H](C[C@H]4[C@@H]5CC=C6CC(O[C@@H]7O[C@H](CO)[C@H](O)[C@H](O[C@@H]8O[C@H](CO)[C@@H](O)[C@H](O)[C@H]8O)[C@H]7O[C@H]7O[C@@H](C)[C@H](O)[C@@H](O)[C@H]7O)CC[C@]6(C)[C@H]5CC[C@]34C)N2C1 (stereo not given in full)", "inactive"),
    ("CCCCCCCCCC[N+](C)(C)CCCCCCCCCC", "inactive"),
    ("C[C@@H]1O[C@@H](O[C@H]2C[C@@H](O)[C@]3(CO)[C@H]4[C@H](O)C[C@]5(C)[C@@H](C6=CC(=O)OC6)CC[C@]5(O)[C@@H]4CC[C@]3(O)C2)[C@H](O)[C@H](O)[C@H]1O", "inactive"),
    ("Clc1ccc(CCC(Cn2ccnc2)Sc2c(Cl)cccc2Cl)cc1 (stereo not given)", "active"),
]

# ---- query molecule ----
QUERY: What outcome does the record of this test show for CC[C@H](C)[C@H]1O[C@]2(C=C[C@@H]1C)C[C@@H]1C[C@@H](C/C=C(\C)[C@@H](O[C@H]3C[C@H](OC)[C@@H](O[C@H]4C[C@H](OC)[C@@H](O)[C@H](C)O4)[C@H](C)O3)[C@@H](C)/C=C/C=C3\CO[C@@H]4[C@H](O)C(C)=C[C@@H](C(=O)O1)[C@]34O)O2 ?
RESULT: inactive

###

test: qHTS assay to identify aromatase inhibitors - cell viability counter screen (AID 743084); settings: MCF-7 aro ERE viability, CellTiter-Fluor, 24 h; series mostly up to 70.3 µM;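 further: cells stimulated with testosterone during compound exposure; nearly all actives have a fitted effect of over 55% in size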; further: potency means the concentration at half of the fitted maximal effect
Records with an inconclusive call do not appear. Active and inactive are the calls of the source. Calls come from the whole dose curve; as a rule, active = well fitted cell-killing curve with a large enough effect in the repeat runs; inconclusive = weak or mixed curves, or effect the other way; inactive = no such curve, though single readings can be large or run the other way.
READOUT TYPE: Potency

Use the examples below as a reference point.
# COMPOUND, OBS VALUE
data = [
    ("CC(C)[C@H](C(=O)OC(C#N)c1cccc(Oc2ccccc2)c1)c1ccc(OC(F)F)cc1 (stereo partly specified)", "inactive"),
    ("O=C(CCl)C(Cl)Cl", "8.71 µM (active)"),
    ("BrC(Br)C(Br)(Br)Br", "54.8 µM (active)"),
    ("O=C(NC(=O)c1c(F)cccc1F)Nc1cc(Cl)c(OC(F)(F)C(F)F)c(Cl)c1", "inactive"),
    ("CCCCN(CCCC)C(=S)[S-].CCCCN(CCCC)C(=S)[S-].[Zn+2]", "inactive"),
]

Alright, here's another compound for you.
QUERY: Record request: Potency value, item CCCCCCCCCCCCCCC(Br)C(=O)O (stereo unspecified)
RESULT: inactive

###

target: Cytochrome P450 1A2 (Homo sapiens); assay: Cytochrome P450 Family 1 Subfamily A Member 2 (CYP1A2) small molecule antagonists: luciferase reporter qHTS assay (AID 1671199); settings: P450-Glo CYP1A2 enzyme, luciferin luminescence, 1 h; series mostly up to 115 µM; further: nearly all actives have a fitted effect of over 50% in size
Records with an inconclusive call do not appear. Calls of active or inactive are those of the source. Calls come from the whole dose curve; as a rule, active = well fitted inhibition curve with a large enough effect in the repeat runs; inconclusive = weak or mixed curves; inactive = no such curve, though single readings can be large or run the other way.
Assign a class; possible classes are TRUE (active), FALSE (inactive)

Take a look at these entries with their results.
# COMPOUND, LABEL
records = [
    ("C=COCCCl", "FALSE"),
    ("BrC(Br)C(Br)(Br)Br", "TRUE"),
    ("C=CC(=O)N(C)C", "FALSE"),
    ("O=c1oc2ccccc2c(O)c1Cc1c(O)c2ccccc2oc1=O", "TRUE"),
    ("Nc1ccc(Cl)cc1C(=O)c1ccccc1", "TRUE"),
]

QUERY: What outcome does the record of this test show for COc1ccc(/C(=C/C(=O)N2CCOCC2)c2ccc(Cl)cc2)cc1OC ?
RESULT: FALSE

QUERY: What outcome does the record of this test show for Nc1ccc([N+](=O)[O-])cc1Cl ?
RESULT: TRUE

QUERY: What outcome does the record of this test show for CCCCCCCCCBr ?
RESULT: FALSE

QUERY: What outcome does the record of this test show for Clc1ccc(CCC(Cn2ccnc2)Sc2c(Cl)cccc2Cl)cc1 (stereo not given) ?
RESULT: TRUE

QUERY: What outcome does the record of this test show for O=[N+]([O-])c1c2ccccc2cc2ccccc12 ?
RESULT: TRUE

QUERY: What outcome does the record of this test show for N#CCc1ccc(Cl)cc1 ?
RESULT: TRUE

QUERY: What outcome does the record of this test show for N#CCCC(Br)(C#N)CBr (stereo not given) ?
RESULT: TRUE

QUERY: What outcome does the record of this test show for COc1ccc(OC)c(CC(C)N)c1 (stereo not given) ?
RESULT: FALSE

QUERY: What outcome does the record of this test show for CC(C)CC(C)N (stereo not given) ?
RESULT: FALSE

QUERY: What outcome does the record of this test show for Clc1ccc(C(c2ccccc2Cl)C(Cl)(Cl)Cl)cc1 (stereo not given) ?
RESULT: FALSE

The measured values listed here are drawn from PubChem BioAssay (Tox21).
